assay: Binding verification by isothermal titration calorimeter with L-arginine; settings: ITC; 10 μM peptide aptamer titrated into 1 μM L-arginine, 10 mM PBS, pH 7.4, 37° C.; read-out: binding parameter Kd value

{"polymer sequence": "FGHIHEGY [peptide aptamer]", "Kd / µM": 13.3}
